Field: Kp at 1 h. Provide a value for each of the compounds that follow.
Experiment: Tissue distribution study in rabbits after oral Panax notoginseng extract with or without Borneol
Format: in vivo, New Zealand rabbits
Conditions: New Zealand, rabbit, liver, oral, Borneol combined with Panax notoginseng, peak levels at 1.0 h, read-out: level in liver, fold higher than the plasma concentrations
Give bare numbers.

| compound | Kp at 1 h |
| --- | --- |
| CC(C)=CCC[C@](C)(O[C@@H]1O[C@H](CO)[C@@H](O)[C@H](O)[C@H]1O)[C@H]1CC[C@]2(C)[C@@H]1[C@H](O)C[C@@H]1[C@@]3(C)CC[C@H](O)C(C)(C)[C@@H]3[C@@H](O[C@@H]3O[C@H](CO)[C@@H](O)[C@H](O)[C@H]3O[C@@H]3O[C@@H](C)[C@H](O)[C@@H](O)[C@H]3O)C[C@]12C [GRe, ginsenoside Re] | 1.97 |

Would you kindly look at the next entry?
Kp at 1 h measured on CC(C)=CCC[C@](C)(O[C@@H]1O[C@H](CO)[C@@H](O)[C@H](O)[C@H]1O)[C@H]1CC[C@]2(C)[C@@H]1[C@H](O)C[C@@H]1[C@@]3(C)CC[C@H](O)C(C)(C)[C@@H]3[C@@H](O[C@@H]3O[C@H](CO)[C@@H](O)[C@H](O)[C@H]3O)C[C@]12C [GRg1, ginsenoside Rg1] = 27.1

----------
Experiment: Tissue distribution study in rabbits after oral Panax notoginseng extract with or without Borneol
Format: in vivo, New Zealand rabbits
Conditions: New Zealand, rabbit, brain, po, 1.0 h, oral Panax notoginseng with Borneol, read-out: Concentration in brain
readout: concentration at 1 h (ng/g)
Answers are plain numbers, in ng/g.

| compound | experimental-result |
| --- | --- |
| CC(C)=CCC[C@](C)(O[C@@H]1O[C@H](CO)[C@@H](O)[C@H](O)[C@H]1O)[C@H]1CC[C@]2(C)[C@@H]1[C@H](O)C[C@@H]1[C@@]3(C)CC[C@H](O)C(C)(C)[C@@H]3[C@@H](O[C@@H]3O[C@H](CO)[C@@H](O)[C@H](O)[C@H]3O[C@@H]3O[C@@H](C)[C@H](O)[C@@H](O)[C@H]3O)C[C@]12C [GRe, ginsenoside Re] | 2760 |

Would you kindly look at the next entry?
concentration at 1 h measured on CC(C)=CCC[C@](C)(O[C@@H]1O[C@H](CO)[C@@H](O)[C@H](O)[C@H]1O)[C@H]1CC[C@]2(C)[C@@H]1[C@H](O)C[C@@H]1[C@@]3(C)CC[C@H](O)C(C)(C)[C@@H]3[C@@H](O[C@@H]3O[C@H](CO)[C@@H](O)[C@H](O)[C@H]3O)C[C@]12C [GRg1, ginsenoside Rg1] = 25700

----------
Experiment: Tissue distribution study in rabbits after oral Panax notoginseng extract with or without Borneol
Type: in vivo, New Zealand rabbits
Settings: New Zealand, rabbit, liver, po, 3 mL·kg^−1, 3.0 h, oral Panax notoginseng, read-out: Concentration in liver
Field: concentration at 3 h. Provide a value for each of the molecules that follow.
Give bare numbers, in ng/g.

| molecule | unit-spec | experimental-result |
| --- | --- | --- |
| CC(C)=CCC[C@](C)(O[C@@H]1O[C@H](CO)[C@@H](O)[C@H](O)[C@H]1O)[C@H]1CC[C@]2(C)[C@@H]1[C@H](O)C[C@@H]1[C@@]3(C)CC[C@H](O)C(C)(C)[C@@H]3[C@@H](O[C@@H]3O[C@H](CO)[C@@H](O)[C@H](O)[C@H]3O[C@@H]3O[C@@H](C)[C@H](O)[C@@H](O)[C@H]3O)C[C@]12C [GRe, ginsenoside Re] | ng/g | 690 |

concentration at 3 h measured on CC(C)=CCC[C@](C)(O[C@@H]1O[C@H](CO)[C@@H](O)[C@H](O)[C@H]1O)[C@H]1CC[C@]2(C)[C@@H]1[C@H](O)C[C@@H]1[C@@]3(C)CC[C@H](O)C(C)(C)[C@@H]3[C@@H](O[C@@H]3O[C@H](CO)[C@@H](O)[C@H](O)[C@H]3O)C[C@]12C [GRg1, ginsenoside Rg1] = 6180
